# Type: in vivo, rat
# Test settings: rat, plasma, po, 20 mg/kg, Cmax, oral 20 mg/kg, SIDM rats
Reported metric: Cmax (ng/mL)
Provide only the numeric value, understood in ng/mL.

Requested read-out: Cmax. Entry: C[C@@H]1CCN(C(=O)CC#N)C[C@@H]1N(C)c1ncnc2[nH]ccc12 [tofacitinib]
680

###

# Type: in vivo, rat
# Test settings: rat, plasma and urine, po, 20 mg/kg, CLR, oral 20 mg/kg, SIDM rats
Reported metric: CL renal (mL/min/kg)
Provide only the numeric value, understood in mL/min/kg.

Requested read-out: CL renal. Entry: `C[C@@H]1CCN(C(=O)CC#N)C[C@@H]1N(C)c1ncnc2[nH]ccc12`
21.7
